Biological target: Protein cereblon/Dual specificity tyrosine-phosphorylation-regulated kinase 1B (Homo sapiens) (UniProt Q9Y463+Q96SW2)
Sequence (Q96SW2 whole entry, looked up): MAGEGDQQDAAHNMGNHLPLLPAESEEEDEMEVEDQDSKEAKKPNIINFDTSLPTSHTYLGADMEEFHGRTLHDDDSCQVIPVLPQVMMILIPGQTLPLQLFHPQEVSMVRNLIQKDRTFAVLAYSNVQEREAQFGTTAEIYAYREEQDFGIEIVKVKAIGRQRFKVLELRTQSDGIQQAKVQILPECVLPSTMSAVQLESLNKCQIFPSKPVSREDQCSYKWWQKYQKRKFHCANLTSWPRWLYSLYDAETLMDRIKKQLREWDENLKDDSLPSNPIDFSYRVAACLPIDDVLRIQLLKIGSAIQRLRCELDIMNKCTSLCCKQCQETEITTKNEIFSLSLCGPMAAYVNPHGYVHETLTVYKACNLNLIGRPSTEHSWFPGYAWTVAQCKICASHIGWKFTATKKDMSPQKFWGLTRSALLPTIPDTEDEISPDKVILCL
Sequence (Q9Y463 whole entry, looked up): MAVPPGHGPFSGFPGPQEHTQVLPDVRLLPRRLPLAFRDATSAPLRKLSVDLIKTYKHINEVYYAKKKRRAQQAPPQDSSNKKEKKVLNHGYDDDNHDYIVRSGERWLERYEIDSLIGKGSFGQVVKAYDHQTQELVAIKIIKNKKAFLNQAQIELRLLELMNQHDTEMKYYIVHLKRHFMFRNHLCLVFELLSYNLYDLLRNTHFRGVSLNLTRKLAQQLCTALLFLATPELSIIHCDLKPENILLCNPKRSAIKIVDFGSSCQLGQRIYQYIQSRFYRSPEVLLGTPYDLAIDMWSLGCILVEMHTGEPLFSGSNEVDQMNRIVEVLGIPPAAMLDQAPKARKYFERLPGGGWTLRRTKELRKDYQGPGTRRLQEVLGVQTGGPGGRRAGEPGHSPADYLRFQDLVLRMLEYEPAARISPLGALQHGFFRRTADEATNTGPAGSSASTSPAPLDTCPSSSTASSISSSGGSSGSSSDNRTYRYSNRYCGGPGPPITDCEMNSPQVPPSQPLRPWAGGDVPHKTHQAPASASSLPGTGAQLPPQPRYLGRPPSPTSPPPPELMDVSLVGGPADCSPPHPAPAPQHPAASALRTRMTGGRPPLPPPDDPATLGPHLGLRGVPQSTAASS
Assay: PROTAC activity at CRBN/HibiT-tagged DYRK1B in Flp-In-T-REx-293 cells assessed as induction of degradation of DYRK1B by measuring maximum efficacy at 1 uM measured after 24 hrs by NanoBiT luciferase assay relative to control
Assay type: cell-based
measured_parameter: Emax (%)

Some molecules with known Emax results, for comparison:
[[record]]
molecule = "Cc1nc2ccc(-c3ccnc(N)c3)nc2n1-c1ccc(N2CCN(C(=O)CCCN3CCC(n4cc(CNc5cccc6c5C(=O)N(C5CCC(=O)NC5=O)C6=O)cn4)CC3)CC2)c(F)c1 (stereo not given)"
units_text = "%"
meas_value = 63

[[record]]
molecule = "Cc1nc2ccc(-c3ccnc(N)c3)nc2n1-c1ccc(N2CCN(CC#Cc3ccc(N4CCC(C(=O)N5CCC(n6cc(CNc7cccc8c7C(=O)N(C7CCC(=O)NC7=O)C8=O)cn6)CC5)CC4)nc3)CC2)c(F)c1 (stereo not given)"
units_text = "%"
meas_value = 66

[[record]]
molecule = "Cc1nc2ccc(-c3ccnc(N)c3)nc2n1-c1ccc(N2CCN(CCOCCOCCOCCC(=O)N3CCN(c4ccc5c(c4)C(=O)N(C4CCC(=O)NC4=O)C5=O)CC3)CC2)c(F)c1 (stereo not given)"
units_text = "%"
meas_value = 0


(I) Cc1nc2ccc(-c3ccnc(N)c3)nc2n1-c1ccc(N2CCN(CCOCCOCCOCCC(=O)NC3CN(c4ccc5c(c4)C(=O)N(C4CCC(=O)NC4=O)C5=O)C3)CC2)c(F)c1 (stereo not given)
(II) Cc1nc2ccc(-c3ccnc(N)c3)nc2n1-c1ccc(N2CCN(C(=O)CCCCN3CCN(Cc4ccc(CNc5cccc6c5CN(C5CCC(=O)NC5=O)C6=O)cc4)CC3)CC2)c(F)c1 (stereo not given)
Sorting by Emax in descending order, would I or II appear first? Answer = label.
II
